From: ChEMBL document CHEMBL3885881

- Species on record: Rattus norvegicus
- TEST METHOD NOTES: DrugMatrix - Regimen: Daily Repeat
- Format: toxicity, organism-based, Sprague-Dawley
- Parameters: regimen Daily Repeat, gender Male, age 6-8 weeks
- EXPERIMENTAL CONDITIONS: in vivo, ip, 2 mg/kg, […], tissue Blood, route intraperitoneal, dose level High, time 14 day, vehicle 100 % SALINE
MEASURE: ABSOLUTE MONOCYTE

> print(dat)
           substance        result
1  LEAD (II) ACETATE  390 cells/µL

====

- Species on record: Rattus norvegicus
- TEST METHOD NOTES: DrugMatrix - Regimen: Daily Repeat
- Type: toxicity, organism-based, Sprague-Dawley
- Parameters: regimen Daily Repeat, gender Male, age 6-8 weeks
- EXPERIMENTAL CONDITIONS: in vivo, po, 0 mg/kg, […], tissue Blood, route oral GAVAGE, dose level Control, time 28 day, vehicle .5 % CMC
MEASURE: ABSOLUTE MONOCYTE (cells/µL)

> print(dat)
                        given.smiles  result
1  Cc1ccc2cc3c(ccc4ccccc43)c3c2c1CC3     190
